target or test system: KRasG12C (Homo sapiens, UniProt P01116, G12C)
Construct: biotin (biotinylated); made in house
Sequence (P01116 1-188 isoform P01116-2 G12C): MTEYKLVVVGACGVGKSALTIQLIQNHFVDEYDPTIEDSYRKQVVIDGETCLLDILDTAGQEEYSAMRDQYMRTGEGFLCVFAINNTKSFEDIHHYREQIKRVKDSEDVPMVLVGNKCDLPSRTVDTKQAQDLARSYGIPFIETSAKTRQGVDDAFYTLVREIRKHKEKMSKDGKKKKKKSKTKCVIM
experiment notes: KRasG12C functional assay (HTRF/FRET nucleotide exchange and Raf RBD binding)
Assay type: biochemical
details: GDP loaded biotinylated KRasG12C, samples incubated for 4 hrs, FRET readout; single experiment or average of two or more; read-out: KRasG12C functional assay IC50
pIC50: −log10 of the molar value.
assay endpoint: pIC50

> print(dat)
                                   compound                     target.or.test.system  assay.endpoint  data.value
1  C=CC(=O)N1CCN2C(=O)c3cc(C)c(-c4c(O)cccc4F)c(Cl)c3OC[C@H]2C1 (single isomer, unassigned) [Example 25]  KRasG12C (Homo sapiens, UniProt P01116, G12C)           pIC50        7.17
2  C=CC(=O)N1CCN2C(=O)c3cc(F)c(-c4c(O)cccc4F)c(Cl)c3OC[C@H]2C1 (single isomer, unassigned) [Example 12]  KRasG12C (Homo sapiens, UniProt P01116, G12C)           pIC50        4.60
3  C=CC(=O)N1CCN2Cc3cc(C#N)c(-c4c(C)cccc4O)c(Cl)c3OC[C@H]2C1 (single isomer, unassigned) [Example 40]  KRasG12C (Homo sapiens, UniProt P01116, G12C)           pIC50        5.34
4  C=CC(=O)N1CCN2Cc3c(c(Cl)c(-c4c(O)cccc4F)c4cn(C)nc34)OC[C@H]2C1 (single isomer, unassigned) [Example 74]  KRasG12C (Homo sapiens, UniProt P01116, G12C)           pIC50        6.87
5  C#Cc1cc2c(c(Cl)c1-c1c(O)cccc1Cl)OC[C@H]1CN(C(=O)C=C)CCN1C2  KRasG12C (Homo sapiens, UniProt P01116, G12C)           pIC50        7.71
6  C=CC(=O)N1CCN2Cc3cc(OC)c(-c4c(O)cccc4F)c(Cl)c3OC[C@H]2C1 (single isomer, unassigned) [Example 30]  KRasG12C (Homo sapiens, UniProt P01116, G12C)           pIC50        4.04

###

target or test system: KRasG12C (Homo sapiens, UniProt P01116, G12C)
Construct: biotin (biotinylated); made in house
experiment notes: KRasG12C functional assay (HTRF/FRET nucleotide exchange and Raf RBD binding)
Format: biochemical
details: GDP loaded biotinylated KRasG12C, samples incubated for 4 hrs, FRET readout; single experiment or average of two or more; read-out: KRasG12C functional assay IC50
assay endpoint: IC50 (nM)

> print(dat)
                                   compound  data.value
1  C=CC(=O)N1CCN2Cc3c(-n4cccn4)cc(-c4c(O)cccc4F)c(Cl)c3OC[C@H]2C1         361
2  C=CC(=O)N1CCN2Cc3c(c(Cl)c(-c4c(O)cccc4F)c4cn(C)nc34)OC[C@H]2C1 (single isomer, unassigned) [Example 75]       50800
3  C=CC(=O)N1CCN2Cc3cc(F)c(-c4c(F)cccc4CO)c(F)c3OC[C@H]2C1 (single isomer, unassigned) [Example 47]        1720
4  C=CC(=O)N1CCN2Cc3c(c(Cl)c(-c4c(O)cccc4F)c4cnn(C)c34)OC[C@H]2C1 (single isomer, unassigned) [Example 72]         133

###

The following molecules are shown together with reported IC50 values.
target or test system: KRasG12C (Homo sapiens, UniProt P01116, G12C)
Construct: biotin (biotinylated); made in house
experiment notes: KRasG12C functional assay (HTRF/FRET nucleotide exchange and Raf RBD binding)
Type: biochemical
details: KRasG12C functional assay IC50, GDP loaded biotinylated KRasG12C, samples incubated for 4 hrs, FRET readout; single experiment or average of two or more
assay endpoint: IC50 (nM)

> print(dat)
                                   molecule  data.value
1  C=CC(=O)N1CCN2Cc3ccc(-c4c(C)ccc5[nH]ncc45)c(Cl)c3OC[C@H]2C1 (single isomer, unassigned) [Example 10]         332
2  C=CC(=O)N1CCN2Cc3cc(C#N)c(-c4c(O)cccc4Cl)c(F)c3OC[C@H]2C1 (single isomer, unassigned) [Example 54]         339
3  C=CC(=O)N1CCN2Cc3cc(OC4CC4)c(-c4c(O)cccc4Cl)c(F)c3OC[C@H]2C1 (single isomer, unassigned)          80
4  C=CC(=O)N1CCN2Cc3cc(F)c(-c4c(O)cccc4Cl)c(F)c3OC[C@H]2C1 (single isomer, unassigned) [Example 43]          33
5  C=CC(=O)N1CCN2Cc3ccc(-c4c(C)ccc5[nH]ncc45)c(Cl)c3OC[C@@H]2C1 (single isomer, unassigned) [Example 3]        1410
6  C=CC(=O)N1CCN2Cc3cc(F)c(-c4c(C)cccc4O)c(F)c3OC[C@H]2C1 (single isomer, unassigned) [Example 45]          66
7  C=CC(=O)N1CCN2Cc3cc(Cl)c(-c4c(O)cccc4Cl)c(F)c3OC[C@H]2C1 (single isomer, unassigned)          25

###

target or test system: KRasG12C (Homo sapiens, UniProt P01116, G12C)
Construct: biotin (biotinylated); made in house
experiment notes: KRasG12C functional assay (HTRF/FRET nucleotide exchange and Raf RBD binding)
Format: biochemical
details: GDP loaded biotinylated KRasG12C, samples incubated for 4 hrs, FRET readout; single experiment or average of two or more; read-out: KRasG12C functional assay IC50
pIC50: −log10 of the molar value.
assay endpoint: pIC50

> print(dat)
                                   compound  data.value
1  C=CC(=O)N1CCN2Cc3cc(Cl)c(-c4c(O)cccc4F)c(Cl)c3OC[C@H]2C1 (single isomer, unassigned) [Example 27]        7.62
2  C=CC(=O)N1CCN2Cc3cc(OC(F)F)c(-c4c(O)cccc4Cl)c(Cl)c3OC[C@H]2C1 (single isomer, unassigned)        7.96
3  C#Cc1c2c(cc(F)c1-c1c(C)cccc1O)CN1CCN(C(=O)C=C)C[C@@H]1CO2 (single isomer, unassigned) [Example 65]        6.74
4  C#Cc1c(F)c2c(c(F)c1-c1c(O)cccc1Cl)OC[C@H]1CN(C(=O)C=C)CCN1C2 (single isomer, unassigned)        7.72

###

Test system: MDR1 (Pgp) and BCRP
experiment notes: Blood brain barrier penetrant assessment: efflux ratio in MDCK_MDR1_BCRP cells
Type: in vitro ADME
details: human, MDCK cells doubly transfected with MDR1 (Pgp) and BCRP, ratio of 2 or less = potential for good BBB penetration, read-out: Hu MDCK-MDR1-BCRP (0.1 uM) Mean Efflux Ratio
assay endpoint: efflux ratio at 0.1 uM

> print(dat)
                                   molecule          assay.endpoint  data.value
1  C#Cc1cc2c(c(Cl)c1-c1c(O)cccc1Cl)OC[C@H]1CN(C(=O)C=C)CCN1C2 [Example 78]  efflux ratio at 0.1 uM         0.7
2  C=CC(=O)N1CCN2Cc3c(F)c(F)c(-c4c(O)cccc4Cl)c(Cl)c3OC[C@H]2C1 (single isomer, unassigned) [Example 92]  efflux ratio at 0.1 uM         0.7
3  C=CC(=O)N1CCN2Cc3cc(F)c(-c4c(O)cccc4Cl)c(F)c3OC[C@H]2C1 (single isomer, unassigned) [Example 43]  efflux ratio at 0.1 uM         0.7
